All figures here come from patent US20070293656A1.

A collection of binders and their measured % bound
target: T1, human collagen type I (acid soluble, extracted from placenta, Sigma C7774) (human, UniProt P02452 162-1218; P08123 80-1119); test: dried collagen assay
T1 construct: gelled and dried as a fibril film in the assay; also called dried human collagen; h-Collagen
T1 sequence (P02452 162-1218 limits assumed, chain 1 of 2): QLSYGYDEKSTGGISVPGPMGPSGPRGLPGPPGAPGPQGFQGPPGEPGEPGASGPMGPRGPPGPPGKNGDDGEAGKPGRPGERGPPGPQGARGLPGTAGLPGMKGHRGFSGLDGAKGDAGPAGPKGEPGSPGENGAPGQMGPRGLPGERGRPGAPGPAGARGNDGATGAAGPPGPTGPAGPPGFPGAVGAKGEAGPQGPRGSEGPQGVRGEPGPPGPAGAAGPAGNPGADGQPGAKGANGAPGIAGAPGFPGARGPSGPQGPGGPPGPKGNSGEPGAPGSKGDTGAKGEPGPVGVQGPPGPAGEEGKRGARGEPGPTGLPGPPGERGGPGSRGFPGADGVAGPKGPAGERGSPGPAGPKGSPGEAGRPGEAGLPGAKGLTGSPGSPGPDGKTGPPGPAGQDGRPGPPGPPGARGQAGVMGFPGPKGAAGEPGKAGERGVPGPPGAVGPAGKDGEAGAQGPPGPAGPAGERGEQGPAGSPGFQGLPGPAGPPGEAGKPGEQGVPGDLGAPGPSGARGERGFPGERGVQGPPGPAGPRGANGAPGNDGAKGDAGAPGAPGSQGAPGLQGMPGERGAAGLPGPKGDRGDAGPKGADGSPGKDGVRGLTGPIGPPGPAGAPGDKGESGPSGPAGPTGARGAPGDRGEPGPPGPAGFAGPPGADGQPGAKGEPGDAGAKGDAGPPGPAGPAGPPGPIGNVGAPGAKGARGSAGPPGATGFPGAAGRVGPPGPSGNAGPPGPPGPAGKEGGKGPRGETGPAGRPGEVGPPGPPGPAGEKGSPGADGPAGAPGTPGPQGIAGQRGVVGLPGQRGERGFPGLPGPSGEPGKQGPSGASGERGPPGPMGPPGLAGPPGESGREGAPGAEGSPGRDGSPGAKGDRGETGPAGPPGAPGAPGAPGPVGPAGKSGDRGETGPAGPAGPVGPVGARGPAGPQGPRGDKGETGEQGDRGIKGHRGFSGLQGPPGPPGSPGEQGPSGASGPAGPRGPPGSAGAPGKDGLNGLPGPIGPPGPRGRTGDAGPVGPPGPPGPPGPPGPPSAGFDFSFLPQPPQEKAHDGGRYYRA
T1 sequence (P08123 80-1119 limits assumed, chain 2 of 2): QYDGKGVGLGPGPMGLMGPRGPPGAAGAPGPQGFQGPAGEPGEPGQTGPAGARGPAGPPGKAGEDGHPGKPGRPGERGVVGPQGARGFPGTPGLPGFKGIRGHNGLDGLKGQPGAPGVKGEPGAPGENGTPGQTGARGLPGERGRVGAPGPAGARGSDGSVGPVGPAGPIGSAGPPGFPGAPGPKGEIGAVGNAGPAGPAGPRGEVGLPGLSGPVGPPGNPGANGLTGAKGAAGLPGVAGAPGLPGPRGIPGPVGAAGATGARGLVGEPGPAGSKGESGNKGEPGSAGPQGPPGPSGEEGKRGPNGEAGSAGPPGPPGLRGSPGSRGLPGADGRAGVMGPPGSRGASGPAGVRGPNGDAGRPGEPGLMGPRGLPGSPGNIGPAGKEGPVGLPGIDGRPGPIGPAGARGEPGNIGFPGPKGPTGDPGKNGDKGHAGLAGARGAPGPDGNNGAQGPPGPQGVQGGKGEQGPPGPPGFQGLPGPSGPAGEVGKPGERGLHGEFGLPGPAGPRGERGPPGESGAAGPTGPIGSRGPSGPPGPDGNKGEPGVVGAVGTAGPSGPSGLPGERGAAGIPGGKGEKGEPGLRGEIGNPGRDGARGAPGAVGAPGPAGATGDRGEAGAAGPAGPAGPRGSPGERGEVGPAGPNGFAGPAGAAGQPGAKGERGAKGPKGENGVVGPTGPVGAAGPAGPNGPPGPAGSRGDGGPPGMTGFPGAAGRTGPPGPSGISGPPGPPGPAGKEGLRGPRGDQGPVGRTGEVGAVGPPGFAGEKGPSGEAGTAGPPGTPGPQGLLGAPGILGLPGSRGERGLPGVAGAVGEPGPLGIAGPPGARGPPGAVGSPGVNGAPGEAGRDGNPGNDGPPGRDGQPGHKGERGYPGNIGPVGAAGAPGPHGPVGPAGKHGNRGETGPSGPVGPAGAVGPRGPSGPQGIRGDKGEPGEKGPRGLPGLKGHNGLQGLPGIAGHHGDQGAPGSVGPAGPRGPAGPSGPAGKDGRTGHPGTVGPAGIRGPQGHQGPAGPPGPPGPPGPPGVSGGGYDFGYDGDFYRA
Bridge positions count the residues as written; N and C are the ends. Ends that are not written are not given here.

binder	% bound
YHACYQAGCAIW (disulfide 4-9 (inferred)) [SEQ ID NO: 136]	2%
YHACYAAGCWIW (disulfide 4-9 (inferred)) [SEQ ID NO: 134]	14%
YHACYQAGCWAW (disulfide 4-9 (inferred)) [SEQ ID NO: 137]	4%
YHACYQAACWIW (disulfide 4-9 (inferred)) [SEQ ID NO: 135]	72%
YHACAQAGCWIW (disulfide 4-9 (inferred)) [SEQ ID NO: 133]	4%
